Test: small-molecule microarray binders of probe aDKK1, primary screen, biochemical, biotinylated probe, 635/667 nm fluorescence (AID 1099);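 also: score merges 667nm spot fluorescence with signal to noise across triplicate slides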
Details: higher = more signal
Outcome label depends on composite z-score relative to 0.4: at/above gives 1, below gives 0.

compound=O=C(CS)NCCCCCCNC(=O)[C@@H]1C[C@@H]2C(=O)NCC(=O)N2[C@@H]1c1cccc(OCCO)c1 label_class=0
compound=CCC[C@@H]1C[C@@]1(CCC)[C@@H](NC(=O)c1ccccc1)c1cccc(Cl)c1 label_class=1
compound=O=C1O[C@@H](c2ccccc2)[C@@H](c2ccccc2)N2[C@@H](c3ccccc3OCCO)[C@]3(C(=O)Nc4ccc(C#CC5=CCCCC5)cc43)[C@@H](C(=O)N3CCCCCCC3)[C@H]12 label_class=1
compound="C[C@H]1C2[C@H](Cc3ccccc3)NC(=O)[C@]23C(=O)N[C@H](Cc2ccccc2)C(=O)N2CCC[C@H]2C(=O)NC/C=C\\C/C=C/C3[C@@H]2O[C@]12C (some centres undefined)" label_class=0
compound=COC(=O)[C@@]1(Cc2ccc(OC)cc2)[C@H]2c3cc(C(=O)N4CCCC4)n(CCN4CNCC4=O)c3C[C@H]2CN1C(=O)c1ccccc1 label_class=1
compound=COCCOC(=O)N1C(=O)[C@@]2(c3ccccc31)[C@H](c1ccccc1OCCO)N1[C@H](c3ccccc3)[C@H](c3ccccc3)OC(=O)[C@H]1[C@@H]2C(=O)N1CCN(c2ncccn2)CC1 label_class=0
compound=CO[C@H]1O[C@H](CO)[C@@H](OC(=O)Nc2ccccc2)[C@H](OC(=O)Nc2ccccc2)[C@@H]1OC(=O)Nc1ccccc1 label_class=0
compound=C=CCNC(=O)[C@H]1[C@@H]2C(=O)O[C@@H](c3ccccc3)[C@@H](c3ccccc3)N2[C@@H](c2ccccc2OCCO)[C@]12C(=O)Nc1ccc(C#CCC(C(=O)OC)C(=O)OC)cc12 label_class=0
compound=C=C(/C(=C/C[C@H](OC(C)=O)c1ccccc1OCCO)c1cnc2ccccc2c1)C(C)C label_class=1
compound=CC(=O)NCCCC[C@@H]1NC(=O)[C@H]2C[C@@H](C(=O)NCCCCCCNC(=O)CS)[C@@H](c3ccc(O)cc3)N2C1=O label_class=0

Request: Threshold query (composite z-score >= 0.4) on "CC(C)C(=C=CC[C@@H](O)c1ccc(OCCO)cc1)C[C@@H](O)c1ccccn1"
Response: 0

Request: State whether the measured composite z-score reaches 0.4, counting equality as reaching it, for "C=CC[C@]1(C(=O)NCCCOC)N=C(c2ccc(OCCCO)cc2)O[C@H]1c1ccccc1CN=[N+]=[N-]"
Response: 1

Request: For this compound, is measured composite z-score 0.4 or higher? O=C1NC(=O)C2C1C=CC(C(O)c1cccs1)N2Nc1ccc(Cl)cc1Cl (centres undefined)
Response: 1

Request: Could you please find out whether CN1C(=O)C2C=CC(C(O)c3ccc([N+](=O)[O-])cc3)N(N3CCCCC3)C2C1=O (centres undefined) has composite z-score that meets 0.4 or exceeds it?
Response: 0

* * *

Test: binders of probe aFSTL3 on microarray, primary screen, stem cell growth factor project, biochemical, small-molecule microarray, fluorescence 635/667 (AID 1064);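 also: measures binding of the biotinylated anti-FSTL3 antibody to printed compounds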
Conditions: higher = more signal
measurement-label: composite z-score
Please reply with the value in numeric form only.

# example entries with known answers
molecule=COCCCNC(=O)[C@@H]1c2ccccc2C(=O)N(Cc2ccccc2Cl)[C@H]1c1ccc(CO)cc1 measurement_label="composite z-score" readout_number=0.189
molecule="C=CCC(OC(C)=O)[C@@H]1[C@@H](N(Cc2ccc(-c3cccc(C(F)(F)F)c3)o2)C(=O)c2ccc(C)cc2)c2cc(OCCCO)ccc2N1C(=O)Cc1ccc2ccccc2c1 (some centres not stated)" measurement_label="composite z-score" readout_number=0.0498
molecule="O=C1C2C=CC(C(O)c3cc(C(F)(F)F)cc(C(F)(F)F)c3)N(n3cnnc3)C2C(=O)N1Cc1ccccc1 (configuration not stated)" measurement_label="composite z-score" readout_number=-0.153
molecule=C=CCOC(=O)[C@H]1[C@@H]2C(=O)O[C@@H](c3ccccc3)[C@@H](c3ccccc3)N2[C@@H](c2ccc(OCCOC(=O)[C@@H]3C[C@@H]4C(=O)N[C@@H](CC(C)C)C(=O)N4[C@@H]3c3ccc(O)cc3)cc2)[C@]12C(=O)Nc1ccccc12 measurement_label="composite z-score" readout_number=-0.254
molecule=O=C(c1ccccc1)N1C(=O)[C@@]2(Cc3ccccc31)N=C(c1ccc(OCCCO)cc1)O[C@H]2c1ccccc1 measurement_label="composite z-score" readout_number=0.77
molecule=C[N+](C)(C)CCCCNC(=O)[C@@H]1C[C@@H]2C(=O)N[C@@H](Cc3ccccc3)C(=O)N2[C@@H]1c1cccc(OCCO)c1 measurement_label="composite z-score" readout_number=0.241
molecule=COCCCNC(=O)[C@]1(CCC(=O)OC(C)(C)C)N=C(c2ccc(OCCCO)cc2)O[C@@H]1c1ccccc1CN=[N+]=[N-] measurement_label="composite z-score" readout_number=0.175
molecule=CC(=O)NCCCC[C@@H]1NC(=O)[C@@H]2C[C@H](C(=O)NCCCCCNC(=O)CS)[C@H](c3cccc(OCCO)c3)N2C1=O measurement_label="composite z-score" readout_number=-0.525

Request: Using the record for "CCOC(=O)C1=CC[C@@H](c2ccccc2)N(S(=O)(=O)c2ccc(C)cc2)[C@H]1c1ccccc1C" , report its composite z-score.
Response: 0.158

Request: Can you look up the measured composite z-score of CCCCC(CC)C(O)C1C=CC2C(=O)N(Cc3ccccc3)C(=O)C2N1n1cnnc1 (configuration not stated) for me?
Response: 0.168

Request: Give the measured composite z-score of "COc1ccc(C(=O)Nc2ccc(CN3C(=O)[C@]4(O[C@H](CCO)[C@@H]([Si](C)(C)c5ccc(OC)cc5)[C@@H]4C)c4ccccc43)cc2)cc1" .
Response: -0.329

Request: Recorded composite z-score of "CCOC(=O)C1=C[C@@H](C(C)(C)C)N(S(=O)(=O)c2ccc(C)cc2)[C@H]1c1ccc(F)cc1" , please.
Response: -0.272

* * *

Assay: HepG2 cell viability effects, profiling panel, calcein-AM fluorescence, 48 h, basal (AID 1164); also: test concentration not given here
Settings: higher = more signal
z-score vs -0.4: at or above is criterion met, below is criterion not met.

compound=COCCOC(=O)N1C(=O)[C@@]2(c3cc(C#CCC(C(=O)OC)C(=O)OC)ccc31)[C@H](c1ccccc1OCCO)N1[C@H](c3ccccc3)[C@H](c3ccccc3)OC(=O)[C@H]1[C@@H]2C(=O)N1CCN(c2ncccn2)CC1 label_class="criterion met"
compound=C=CC[C@@]12N=C(c3ccc(OCCCO)cc3)O[C@@H]1c1ccccc1N(C)C2=O label_class="criterion not met"

Request: # bool: z-score of "C=CCNC(=O)[C@@H]1[C@H]2C(=O)O[C@H](c3ccccc3)[C@H](c3ccccc3)N2[C@H](c2ccc(O)cc2)[C@@]12C(=O)N(C(=O)OCCOC)c1ccc(C#CCNC(N)=O)cc12" >= -0.4
Response: criterion met

Request: Dear colleague, could you confirm whether "COC(=O)C(CC#Cc1ccc2c(c1)[C@]1(C(=O)N2)[C@H](c2ccc(OCCO)cc2)N2[C@H](c3ccccc3)[C@H](c3ccccc3)OC(=O)[C@H]2[C@@H]1C(=O)N1CCc2cc(OC)c(OC)cc2C1)C(=O)OC" has z-score at or above -0.4?
Response: criterion met

* * *

System: Human papillomavirus type 1a protein E7 (residues 44-93)
Assay: HPV1a E7 fragment binders on microarrays, primary screen, biochemical, small-molecule microarray, residues 44-93, 635 nm fluorescence (AID 1108);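 also: E7 fragment applied at 1 µg/mL in TBST for 1 h at 4 C; score combines spot fluorescence with its signal to noise ratio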
Settings: small-molecule microarray binding, fluorescence 635 nm; higher = more signal
# key: entry, value: composite z-score

Some solved entries appear below for comparison.
compound="COc1cc(NN2C(C(O)c3ccco3)C=CC3C(=O)N(c4ccccc4)C(=O)C32)cc(OC)c1OC (stereo not drawn)" measurement_label="composite z-score" result=-0.271
compound=NCCCCCCNC(=O)[C@@H]1C[C@@H]2C(=O)NCC(=O)N2[C@@H]1c1ccc(O)cc1 measurement_label="composite z-score" result=1.29
compound=CC#CC(=O)Oc1ccccc1C=CC(=O)OCC measurement_label="composite z-score" result=0.793
compound=COC(=O)[C@@]1(Cc2ccc(F)cc2)[C@H]2c3cc(C(=O)N(C)C)n(Cc4ccccc4)c3C[C@H]2CN1C(=O)c1ccccc1 measurement_label="composite z-score" result=1.35
compound=CC(C)N1C(=O)c2ccccc2[C@](C)(C(=O)NCCN2CCOCC2)[C@@H]1c1ccc(CO)cc1 measurement_label="composite z-score" result=0.416

Request: Field request: composite z-score | item: O=C1NC(=O)C2C1C=CC(C(O)c1cccs1)N2Nc1ccc(Cl)cc1Cl (stereo not drawn)
Response: -1.16

Request: Form field: reported composite z-score of "CCCC[C@@H]1C[C@H]1[C@@H](NC(=O)c1ccccc1)c1ccc(C(=O)OC)cc1"
Response: -0.541

Request: Entry "COc1ccc(C#Cc2ccc3c(c2)[C@]2(C(=O)N3)[C@H](C(=O)NC[C@H](O)c3ccccc3)[C@H]3C(=O)O[C@H](c4ccccc4)[C@H](c4ccccc4)N3[C@@H]2c2ccc(O)cc2)cc1" : reported composite z-score = ?
Response: 1.43
